procedure details: Selectivity index, ratio of EC50 for HEK cells to EC50 for Leishmania major Friedlin promastigotes
Format: toxicity, cell-based, HEK293
assay context: human, HEK cells versus Leishmania major Friedlin promastigotes; read-out: Ratio EC50
assay endpoint: selectivity ratio

>  <smiles representation>
COc1ccc(/C=C/C(=O)CC(=O)/C=C/c2ccc(OC)c(OC)c2)cc1OC

>  <assay endpoint>
selectivity ratio

>  <quantitative result>
70

$$$$

----------
System: Trypanosoma brucei brucei
procedure details: Antitrypanosomal activity against Trypanosoma brucei brucei 427 after 48 hrs by alamar blue assay
Type: functional, organism-based
assay context: Trypanosoma brucei, 427, 48 h; read-out: EC50
Quick rule for you: EC50 under 2000 nM gets class 1, anything else gets class 0.

>  <smiles representation>
COc1cc(/C=C/C(=O)CC(=O)/C=C/c2ccc(O)c(O)c2)ccc1O

>  <study target>
Trypanosoma brucei brucei

>  <label>
class 1

$$$$
>  <smiles representation>
O=C(/C=C/c1ccc(O)cc1)CC(=O)/C=C/c1ccc(O)c(O)c1

>  <study target>
Trypanosoma brucei brucei

>  <label>
class 1

$$$$
>  <smiles representation>
COc1cc(/C=C/C(=O)CC(=O)/C=C/c2ccc(O)cc2)ccc1OC(=O)c1ccccc1

>  <study target>
Trypanosoma brucei brucei

>  <label>
class 1

$$$$
>  <smiles representation>
COc1ccc(CC/C=C/C(=O)CCc2ccc(OC)c(OC)c2)cc1OC

>  <study target>
Trypanosoma brucei brucei

>  <label>
class 1

$$$$
>  <smiles representation>
COc1cc(/C=C/C(=O)CC(=O)/C=C/c2ccc(OC(=O)c3ccccc3)c(OC)c2)ccc1O

>  <study target>
Trypanosoma brucei brucei

>  <label>
class 0

$$$$
>  <smiles representation>
COc1ccc(/C=C/C(=O)CC(=O)/C=C/c2ccc(OC)c(OC)c2)cc1OC

>  <study target>
Trypanosoma brucei brucei

>  <label>
class 1

$$$$

----------
Tested on: Leishmania major
procedure details: Antileishmanial activity against Leishmania major Friedlin promastigotes after 48 hrs by alamar blue assay
Format: functional, organism-based
assay context: Leishmania major, Friedlin, 48 h; read-out: EC50
pEC50: −log10 of the molar value.
assay endpoint: pEC50

>  <compound>
COc1cc(CCC(=O)CC(=O)CCc2ccc(O)c(O)c2)ccc1O

>  <assay endpoint>
pEC50

>  <value qualifier>
=

>  <quantitative result>
4.96

$$$$
>  <compound>
COc1ccc(/C=C/C(=O)CC(=O)/C=C/c2ccc(O)c(OC)c2)cc1

>  <assay endpoint>
pEC50

>  <value qualifier>
=

>  <quantitative result>
4.64

$$$$
>  <compound>
COc1cc(/C=C/C=C/C(=O)/C=C/c2ccc(O)c(OC)c2)ccc1O

>  <assay endpoint>
pEC50

>  <value qualifier>
=

>  <quantitative result>
5.13

$$$$
>  <compound>
N=C(N)c1ccc(OCCCCCOc2ccc(C(=N)N)cc2)cc1 [PENTAMIDINE]

>  <assay endpoint>
pEC50

>  <value qualifier>
=

>  <quantitative result>
5.42

$$$$
>  <compound>
COc1cc(CC/C=C/C(=O)CCc2ccc(O)c(OC)c2)ccc1O

>  <assay endpoint>
pEC50

>  <value qualifier>
=

>  <quantitative result>
5.05

$$$$
>  <compound>
COc1ccc(CCC(=O)CC(O)CCc2ccc(OC)c(OC)c2)cc1OC (stereo unspecified)

>  <assay endpoint>
pEC50

>  <value qualifier>
=

>  <quantitative result>
4.39

$$$$
>  <compound>
COc1cc(CCC(O)CC(O)CCc2ccc(O)c(OC)c2)ccc1O (stereo unspecified) [OCTAHYDROCURCUMIN]

>  <assay endpoint>
pEC50

>  <value qualifier>
<

>  <quantitative result>
4.00

$$$$
>  <compound>
O=C(CCc1ccc(O)c(O)c1)CC(=O)CCc1ccc(O)c(O)c1 [DIDEMETHYLTETRAHYDROCURCUMIN]

>  <assay endpoint>
pEC50

>  <value qualifier>
<

>  <quantitative result>
4.00

$$$$
>  <compound>
COc1cc(/C=C/C(=O)CC(=O)/C=C/c2ccc(OCCO)c(OC)c2)ccc1OCCO

>  <assay endpoint>
pEC50

>  <value qualifier>
=

>  <quantitative result>
4.48

$$$$
>  <compound>
COc1cc(/C=C/C(=O)CC(=O)/C=C/c2ccc(OCC=C(C)C)c(OC)c2)ccc1O

>  <assay endpoint>
pEC50

>  <value qualifier>
=

>  <quantitative result>
5.12

$$$$
>  <compound>
COc1cc(/C=C/C(=O)CC(=O)/C=C/c2cc(OC)c(O)c([N+](=O)[O-])c2)ccc1O

>  <assay endpoint>
pEC50

>  <value qualifier>
=

>  <quantitative result>
4.55

$$$$
>  <compound>
COc1cc(/C=C/C(=O)CC(=O)/C=C/c2ccc(OC(C)=O)c(OC)c2)ccc1OC(C)=O

>  <assay endpoint>
pEC50

>  <value qualifier>
=

>  <quantitative result>
4.14

$$$$
>  <compound>
CCCCCOc1ccc(CC/C=C/C(=O)CCc2ccc(OCCCCC)c(OC)c2)cc1OC

>  <assay endpoint>
pEC50

>  <value qualifier>
=

>  <quantitative result>
5.18

$$$$
>  <compound>
COc1cc(/C=C/C(=O)/C=C/CCc2ccc(O)c(OC)c2)ccc1O

>  <assay endpoint>
pEC50

>  <value qualifier>
=

>  <quantitative result>
5.57

$$$$
>  <compound>
COc1cc(CCC(=O)CC(=O)CCc2ccc(O)c(OC)c2)ccc1O [TETRAHYDROCURCUMIN]

>  <assay endpoint>
pEC50

>  <value qualifier>
=

>  <quantitative result>
4.05

$$$$
>  <compound>
COc1cc(CC/C=C/C(O)CCc2ccc(O)c(OC)c2)ccc1O (stereo unspecified)

>  <assay endpoint>
pEC50

>  <value qualifier>
=

>  <quantitative result>
4.30

$$$$

----------
System: Trypanosoma evansi
procedure details: Antitrypanosomal activity against Trypanosoma evansi ITMAV170475 after 48 hrs by alamar blue assay
Type: functional, organism-based
assay context: ITMAV170475, 48 h
In this section, each of the compounds is paired with its reported log10 EC50.
assay endpoint: log10 EC50 (log10 of the value in µM)

>  <compound>
COc1cc(/C=C/C(=O)/C=C/CCc2ccc(O)c(OC)c2)ccc1O

>  <log10 EC50>
-0.68

$$$$
>  <compound>
COc1cc(/C=C/C(=O)CC(=O)/C=C/c2ccc(O)c(O)c2)ccc1O

>  <log10 EC50>
0.04

$$$$
>  <compound>
COc1cc(/C=C/C(=O)CC(=O)/C=C/c2ccc(OC(=O)c3ccccc3)cc2)ccc1O

>  <log10 EC50>
0.46

$$$$
>  <compound>
C=CCOc1ccc(/C=C/C(=O)CC(=O)/C=C/c2ccc(OCC=C)c(OC)c2)cc1OC

>  <log10 EC50>
0.75

$$$$
>  <compound>
C=CCOc1ccc(/C=C/C(=O)CC(=O)/C=C/c2ccc(O)c(OC)c2)cc1OC

>  <log10 EC50>
0.20

$$$$
>  <compound>
COc1cc(/C=C/C(=O)CC(=O)/C=C/c2ccc(O)c(OC)c2)ccc1O [CURCUMIN]

>  <log10 EC50>
0.30

$$$$
>  <compound>
COc1cc(CC/C=C/C(=O)CCc2ccc(O)c(OC)c2)ccc1O

>  <log10 EC50>
-0.77

$$$$
>  <compound>
N=C(N)c1ccc(/N=N/Nc2ccc(C(=N)N)cc2)cc1 [DIMINAZENE]

>  <log10 EC50>
-1.74

$$$$
>  <compound>
COc1cc(/C=C/C(=O)CC(=O)/C=C/c2ccc(OC(=O)c3ccccc3)c(OC)c2)ccc1O

>  <log10 EC50>
0.18

$$$$

----------
System: Leishmania major
procedure details: Antileishmanial activity against Leishmania major Friedlin promastigotes after 48 hrs by alamar blue assay
Type: functional, organism-based
assay context: Leishmania major, Friedlin, 48 h; read-out: EC50
Catalogue of log10(EC50) values
assay endpoint: log10(EC50) (log10 of the value in µM)

>  <smiles representation>
COc1ccc(/C=C/C(=O)CC(=O)/C=C/c2ccc(OC)c(OC)c2)cc1OC

>  <log10(EC50)>
0.45

$$$$
>  <smiles representation>
COc1cc(/C=C/C=C/C(=O)CCc2ccc(O)c(OC)c2)ccc1O

>  <log10(EC50)>
1.48

$$$$
>  <smiles representation>
COc1cc(/C=C/C(=O)CC(=O)/C=C/c2ccc(OCCO)c(OC)c2)ccc1O

>  <log10(EC50)>
1.34

$$$$
>  <smiles representation>
O=C(CCc1ccc(O)cc1)CC(=O)CCc1ccc(O)cc1

>  <log10(EC50)>
1.90

$$$$
>  <smiles representation>
O=C(/C=C/c1ccc(O)c(O)c1)CC(=O)/C=C/c1ccc(O)c(O)c1

>  <log10(EC50)>
1.41

$$$$
>  <smiles representation>
C=CCOc1ccc(/C=C/C(=O)CC(=O)/C=C/c2ccc(O)c(OC)c2)cc1OC

>  <log10(EC50)>
0.76

$$$$
>  <smiles representation>
COc1cc(/C=C/C(=O)CC(=O)/C=C/c2ccc(O)cc2)ccc1OC(=O)c1ccccc1

>  <log10(EC50)>
1.62

$$$$
>  <smiles representation>
O=C(/C=C/c1ccc(O)cc1)CC(=O)/C=C/c1ccc(OC(=O)c2ccccc2)cc1

>  <log10(EC50)>
1.78

$$$$
>  <smiles representation>
COc1cc(/C=C/C(=O)CC(=O)/C=C/c2ccc(OCC=C(C)C)cc2)ccc1OCC=C(C)C

>  <log10(EC50)>
1.68

$$$$
>  <smiles representation>
COc1cc(/C=C/C(=O)CC(=O)/C=C/c2ccc(OC(=O)c3ccccc3)cc2)ccc1O

>  <log10(EC50)>
1.30

$$$$
>  <smiles representation>
CCCOc1ccc(/C=C/C(=O)CC(=O)/C=C/c2ccc(OCCC)c(OC)c2)cc1OC

>  <log10(EC50)>
1.45

$$$$
>  <smiles representation>
COc1cc(/C=C/C(=O)CC(=O)/C=C/c2ccc(O)c(OC)c2)ccc1O

>  <log10(EC50)>
1.52

$$$$
>  <smiles representation>
O=C(/C=C/c1ccc(O)cc1)CC(=O)/C=C/c1ccc(O)cc1

>  <log10(EC50)>
1.86

$$$$
>  <smiles representation>
COc1ccc(/C=C/C(=O)CC(=O)/C=C/c2ccc(OC)c(OC)c2)cc1

>  <log10(EC50)>
1.36

$$$$
